pIC50: −log10 of the molar value.
Below are pIC50 values for PIK3CD (Human) collected from several publications.

Here are 2 compounds together with their reported answers.
Cc1cccc2cc([C@H](C)Nc3ncnc4[nH]cc(F)c34)n(C3CC3)c(=O)c12 :: > 7.00
Cc1cccc2cc([C@H](C)Nc3ncnc4[nH]cnc34)nc(N3CCN(C)CC3)c12 :: > 7.00

Here is the next item to consider.
Looking up Cc1cc(-c2ccc3nc(N)oc3c2)cn2c(CN3CCN(C)CC3)nnc12 , I see its pIC50 listed as < 5.00

* * *

Below are IC50 values for PIK3CD (Human) (UniProt O00329) collected from several publications.
Response body: numeric value in nM, unit text excluded.

COCC(C)N(C)[C@H]1CC[C@H](CNc2nc(N3CCOC[C@@H]3C)cc(-n3c(C(F)F)nc4ccccc43)n2)CC1 (stereo partly shown) :: 5.3
C[C@@H](c1cc2ccccc2c(=O)n1-c1ccccc1)n1nc(-c2ccc(O)c(F)c2)c2c(N)ncnc21 :: 13.3
CC(C)(O)CNC12CCC(CNc3nc(N4CCOCC4)cc(-n4c(C(F)F)nc5ccccc54)n3)(CC1)CC2 :: 21

Here is the next item to consider.
Looking up COc1ncc(-c2nc(N3CCOCC3)nc3c(CN4CCc5ccccc5C4)c(C)sc23)cc1NS(C)(=O)=O , I see its IC50 listed as 34
